- target.system: EGFR (mutated) 695-1022, T790M, C797S, L858R (Homo sapiens (Human), UniProt P00533, C797S/L858R/T790M)
- Sequence (P00533 695-1022 T790M/C797S/L858R): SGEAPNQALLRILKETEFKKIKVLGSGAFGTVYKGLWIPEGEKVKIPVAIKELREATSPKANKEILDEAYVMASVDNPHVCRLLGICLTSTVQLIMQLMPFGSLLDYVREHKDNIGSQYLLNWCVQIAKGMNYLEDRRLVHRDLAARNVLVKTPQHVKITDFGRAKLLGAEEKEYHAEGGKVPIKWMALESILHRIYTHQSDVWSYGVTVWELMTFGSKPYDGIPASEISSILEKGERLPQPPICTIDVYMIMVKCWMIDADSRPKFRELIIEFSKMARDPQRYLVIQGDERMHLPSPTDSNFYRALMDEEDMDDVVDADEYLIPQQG
- method: Biochemical EGFR inhibition assay (TR-FRET, poly-GT substrate), EGFR T790M C797S L858R
- measurement.context: read-out: LR_TM_CS (5 μM ATP) IC50; 5 μM ATP
measurement.name: IC50 (nM)

(P) Cc1cc(C(=O)/N=c2\[nH]c3cc(CN4CCN(C)CC4)ccc3n2[C@H]2CCC[C@H](O)C2)cc(-c2cnn(C)c2)n1
(Q) Cc1cc(C(=O)/N=c2\[nH]c3ccccc3n2[C@H]2CCC[C@H](O)C2)cc(-c2cnn(C)c2)n1
(R) COc1ccccc1-c1cc(C(=O)/N=c2\[nH]c3ccccc3n2[C@H]2CC[C@@H](O)CC2)ccn1
(S) Cn1cc(-c2cc(C(=O)/N=c3\[nH]c4ccccc4n3C3CCCS(=O)(=O)C3)ccn2)cn1 (stereo not shown)
Problem: Please rank everything listed above by IC50, with the minimum value first. Answer with the labels in sequence, matching the requested order.
Solution: R, S, P, Q
